# System: Mus musculus
# protocol_description: Analgesic activity in Kunming mouse assessed as inhibition of acetic acid-induced writhing response at 40 mg/kg, po
# Assay type: functional
Can you tell me inhibition in vivo at 40 mg/kg for the items I'm about to list?
Numbers only, in %.

>  <structure_smiles_string>
CC(=O)Oc1ccc(-c2ccc(F)cc2F)cc1C(=O)Nc1cc(C)ccc1C

>  <inhibition in vivo at 40 mg/kg [%]>
13.2

$$$$
>  <structure_smiles_string>
CC(=O)Oc1ccc(-c2ccc(F)cc2F)cc1C(=O)NCc1ccccc1

>  <inhibition in vivo at 40 mg/kg [%]>
16.6

$$$$
>  <structure_smiles_string>
CC(=O)Oc1ccc(-c2ccc(F)cc2F)cc1C(=O)NN1CCOCC1

>  <inhibition in vivo at 40 mg/kg [%]>
28.5

$$$$
>  <structure_smiles_string>
CC(=O)Oc1ccc(-c2ccc(F)cc2F)cc1C(=O)NC1CCCCC1

>  <inhibition in vivo at 40 mg/kg [%]>
15.6

$$$$
>  <structure_smiles_string>
CCNC(=O)c1cc(-c2ccc(F)cc2F)ccc1OC(C)=O

>  <inhibition in vivo at 40 mg/kg [%]>
23.9

$$$$
>  <structure_smiles_string>
CNC(=O)c1cc(-c2ccc(F)cc2F)ccc1OC(=O)c1ccccc1

>  <inhibition in vivo at 40 mg/kg [%]>
47.5

$$$$
>  <structure_smiles_string>
CC(=O)Oc1ccc(-c2ccc(F)cc2F)cc1C(=O)Nc1ccc(Cl)cc1

>  <inhibition in vivo at 40 mg/kg [%]>
29.9

$$$$
>  <structure_smiles_string>
CC(=O)Oc1ccc(-c2ccc(F)cc2F)cc1C(=O)Nc1ccccc1Cl

>  <inhibition in vivo at 40 mg/kg [%]>
11.7

$$$$

Would you be so kind as to report inhibition in vivo at 40 mg/kg for each listed record?
1. CCN(CC)C(=O)c1cc(-c2ccc(F)cc2F)ccc1OC(=O)c1ccccc1
2. CC(=O)Oc1ccc(-c2ccc(F)cc2F)cc1C(=O)Nc1ccccc1C

a:
1: 0; 2: 12.3

---

# System: Mus musculus
# protocol_description: Analgesic activity in Kunming mouse assessed as inhibition of acetic acid-induced writhing response at 40 mg/kg, po
# Type: functional
inhibition in vivo at 40 mg/kg of 9% or higher: fulfilled. Under 9%: not fulfilled.

>  <structure_smiles_string>
O=C(O)c1cc(-c2ccc(F)cc2F)ccc1O

>  <group_label>
not fulfilled

$$$$

As a next step, examine the molecule that follows.
q: Identify whether the reported inhibition in vivo at 40 mg/kg of the following molecule is 9% or greater: CC(=O)Oc1ccc(-c2ccc(F)cc2F)cc1C(=O)O
a: not fulfilled

---

# Tested on: Mus musculus
# protocol_description: Analgesic activity in Kunming mouse assessed as inhibition of acetic acid-induced writhing response at 40 mg/kg, po
# Format: functional
property_label: inhibition in vivo at 40 mg/kg
Answer by giving the amount and then stating its unit.

Past entries and their recorded results:
>  <structure_smiles_string>
CC(=O)Oc1ccc(-c2ccc(F)cc2F)cc1C(=O)Nc1ccccc1

>  <inhibition in vivo at 40 mg/kg>
8.9%

$$$$
>  <structure_smiles_string>
Cc1ccccc1NC(=O)c1cc(-c2ccc(F)cc2F)ccc1OC(=O)c1ccccc1

>  <inhibition in vivo at 40 mg/kg>
20.8%

$$$$
>  <structure_smiles_string>
O=C(Oc1ccc(-c2ccc(F)cc2F)cc1C(=O)O)c1ccccc1

>  <inhibition in vivo at 40 mg/kg>
7.97%

$$$$

Look up inhibition in vivo at 40 mg/kg for the entries below, preserving their order.
1. CC(=O)Oc1ccc(-c2ccc(F)cc2F)cc1C(=O)Nc1cccc(C)c1
2. CNC(=O)c1cc(-c2ccc(F)cc2F)ccc1OC(C)=O
3. CN1CCN(C(=O)c2cc(-c3ccc(F)cc3F)ccc2OC(=O)c2ccccc2)CC1
4. CC(=O)Oc1ccc(-c2ccc(F)cc2F)cc1C(=O)Nc1ccc(C)cc1
5. O=C(Oc1ccc(-c2ccc(F)cc2F)cc1C(=O)Nc1ccccc1)c1ccccc1

a:
1: 19%; 2: 29.9%; 3: 88.3%; 4: 31%; 5: 5.57%

Sourced from ChEMBL document CHEMBL1154511
